pIC50: −log10 of the molar value.
These records show pIC50 for Fyn (Homo sapiens).

Below: 2 compounds and their reported pIC50.
CCN1CCC(Nc2ccc3c(c2)/C(=C(\c2ccccc2)c2nc(CCN4C(=O)c5ccccc5C4=O)c[nH]2)C(=O)N3)CC1 ... 6.30 to 7.30
CN(C)CCN1CCC(Nc2ccc3c(c2)/C(=C(\c2ccccc2)c2nc4ccccc4[nH]2)C(=O)N3)CC1 ... 6.30 to 7.30

Then this compound:
[in] Recall the recorded pIC50 for CCN1CCC(Nc2ccc3c(c2)/C(=C(\c2ccc(Cl)cc2)c2nc(C)c[nH]2)C(=O)N3)CC1 with Fyn (Homo sapiens) and state it.
Sequence (P06241 whole entry, species assumed): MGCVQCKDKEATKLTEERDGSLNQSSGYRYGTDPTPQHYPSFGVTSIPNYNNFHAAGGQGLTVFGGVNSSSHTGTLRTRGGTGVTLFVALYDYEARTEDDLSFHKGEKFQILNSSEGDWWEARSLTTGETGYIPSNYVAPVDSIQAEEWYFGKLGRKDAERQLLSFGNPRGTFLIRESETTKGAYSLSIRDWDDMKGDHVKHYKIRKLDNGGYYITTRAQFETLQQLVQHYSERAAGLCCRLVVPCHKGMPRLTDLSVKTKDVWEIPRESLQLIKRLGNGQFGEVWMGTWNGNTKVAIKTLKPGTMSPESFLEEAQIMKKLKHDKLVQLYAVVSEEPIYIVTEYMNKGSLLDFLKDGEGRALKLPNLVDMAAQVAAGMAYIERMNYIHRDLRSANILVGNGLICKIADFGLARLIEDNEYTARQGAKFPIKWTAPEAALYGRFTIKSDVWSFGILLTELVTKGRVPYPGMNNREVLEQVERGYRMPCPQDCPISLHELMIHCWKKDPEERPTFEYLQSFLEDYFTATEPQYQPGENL
[out] > 7.30
